TESTED SYSTEM: FSHR (Homo sapiens, UniProt P23945)
Sequence (P23945 18-695): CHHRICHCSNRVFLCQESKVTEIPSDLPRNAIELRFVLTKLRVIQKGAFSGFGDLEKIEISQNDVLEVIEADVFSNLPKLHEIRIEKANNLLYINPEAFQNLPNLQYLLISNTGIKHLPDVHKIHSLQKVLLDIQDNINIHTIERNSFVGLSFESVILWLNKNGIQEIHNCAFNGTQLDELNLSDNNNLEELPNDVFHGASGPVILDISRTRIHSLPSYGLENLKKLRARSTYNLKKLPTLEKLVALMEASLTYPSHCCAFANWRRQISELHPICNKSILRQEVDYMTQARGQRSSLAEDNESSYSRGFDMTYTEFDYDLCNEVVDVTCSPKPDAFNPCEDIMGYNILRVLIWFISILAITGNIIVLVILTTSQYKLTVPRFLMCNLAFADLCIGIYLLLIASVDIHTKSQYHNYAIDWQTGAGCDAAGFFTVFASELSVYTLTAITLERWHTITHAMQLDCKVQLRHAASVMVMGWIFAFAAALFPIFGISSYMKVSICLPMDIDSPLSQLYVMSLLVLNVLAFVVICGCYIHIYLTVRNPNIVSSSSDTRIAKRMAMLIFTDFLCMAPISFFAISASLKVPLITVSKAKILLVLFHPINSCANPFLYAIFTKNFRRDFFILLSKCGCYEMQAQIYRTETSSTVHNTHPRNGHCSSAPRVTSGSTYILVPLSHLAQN
EXPERIMENTAL PROTOCOL: EC50 of cyclic AMP production in CHO FSHR cells + EC20 FSH (Assay A)
CONDITION PARAMETERS: CHO-FSHR-LUC cells, in presence of EC20 FSH, cAMP HTRF, 1 h 37° C.
PARAMETER: EC50

>>> result_value("COc1cc2c(cc1OC(C)C)-n1c(-c3ccc(C#N)c(C(F)(F)F)c3)nc(C(=O)N3CCOCC3(C)C)c1CC2")
"1000 to 5000 nM"
>>> result_value("COc1cc2c(cc1OC(C)C)-n1c(-c3cc(Cl)cs3)nc(C(=O)N3CCOCC3(C)C)c1CC2")
"< 100 nM"
>>> result_value("COc1cc2c(cc1NC(=O)C(C)C)-n1c(-c3cccs3)nc(C(=O)N3CCOCC3(C)C)c1CC2")
"100 to 1000 nM"
>>> result_value("COc1cc2c(cc1OC(C)C)-n1c(-c3cc(F)ccc3OC)nc(C(=O)N3CCOCC3(C)C)c1CC2")
"1000 to 5000 nM"
>>> result_value("COc1cc2c(cc1CC(C)C)-n1c(-c3cc(C)cs3)nc(C(=O)N(C)C(C)(C)C)c1CC2")
"100 to 1000 nM"
>>> result_value("COc1cc2c(cc1-c1ccn(C)c1)-n1c(-c3cccs3)nc(C(=O)N3CCOCC3(C)C)c1CC2")
"< 100 nM"
>>> result_value("COc1cc2c(cc1OC(C)C)-n1c(-c3cccs3)nc(C(=O)N3CCOCC3(C)C)c1CO2")
"< 100 nM"
>>> result_value("COc1cc2c(cc1OC(C)C)-n1c(-c3ccnn3C)nc(C(=O)N3CCOCC3(C)C)c1CC2")
"1000 to 5000 nM"
>>> result_value("COc1cc2c(cc1OC(C)C)-n1c(-c3cccc(Cl)c3Cl)nc(C(=O)N3CCOCC3(C)C)c1CC2")
"100 to 1000 nM"
>>> result_value("COc1cc2c(cc1OC(C)C)-n1c(-c3ccsc3)nc(C(=O)N(C)C(C)(C)C)c1CO2")
"< 100 nM"
>>> result_value("COc1cc2c(cc1OC(C)C)-n1c(-c3ccc(Cl)s3)nc(C(=O)N3CCOCC3(C)C)c1CC2")
"< 100 nM"
>>> result_value("COc1cc2c(cc1CC(C)C)-n1c(-c3sccc3C)nc(C(=O)N(C)C(C)(C)C)c1CC2")
"100 to 1000 nM"
>>> result_value("COc1cc2c(cc1CC(C)C)-n1c(-c3ccc(Cl)s3)nc(C(=O)N(C)C(C)(C)C)c1CC2")
"< 100 nM"

====

TESTED SYSTEM: FSHR (Homo sapiens, UniProt P23945)
EXPERIMENTAL PROTOCOL: EC50 of cyclic AMP production in CHO FSHR cells + EC20 FSH (Assay A)
CONDITION PARAMETERS: CHO-FSHR-LUC cells, in presence of EC20 FSH, cAMP HTRF, 1 h 37° C.
Some compounds, each annotated with its measured EC50.
PARAMETER: EC50

>>> result_value("COc1cc2c(cc1OC(C)C)-n1c(-c3sccc3C)nc(C(=O)N3CCOCC3(C)C)c1CC2")
"0.1 to 1 µM"
>>> result_value("COc1cc2c(cc1OC(C)C)-n1c(-c3cccc(Cl)c3F)nc(C(=O)N3CCOCC3(C)C)c1CC2")
"0.1 to 1 µM"
>>> result_value("COc1cc2c(cc1CC(C)C)-n1c(-c3ccc(C)s3)nc(C(=O)N(C)C(C)(C)C)c1CC2")
"0.1 to 1 µM"
>>> result_value("COc1cc2c(cc1CC(C)C)-n1c(-c3cccs3)nc(C(=O)N3CCOCC3(C)C)c1CC2")
"< 0.1 µM"
>>> result_value("COc1cc2c(cc1OC(C)C)-n1c(-c3cncn3C)nc(C(=O)N3CCOCC3(C)C)c1CC2")
"> 5 µM"
>>> result_value("COc1cc2c(cc1OC(C)C)-n1c(Br)nc(C(=O)N(C)C(C)(C)C)c1CC2")
"> 5 µM"
>>> result_value("COc1cc2c(cc1CC(C)C)-n1c(-c3ccc[nH]3)nc(C(=O)N3CCOCC3(C)C)c1CC2")
"0.1 to 1 µM"
>>> result_value("COc1cc2c(cc1OC(C)C)-n1c(C3=CCCCO3)nc(C(=O)N3CCOCC3(C)C)c1CC2")
"0.1 to 1 µM"
>>> result_value("COc1cc2c(cc1OC(C)C)-n1c(-c3cnn(C4CCC4)c3)nc(C(=O)N3CCOCC3(C)C)c1CC2")
"> 5 µM"
>>> result_value("COc1cc2c(cc1OC(C)C)-n1c(-c3cccc4[nH]ncc34)nc(C(=O)N3CCOCC3(C)C)c1CC2")
"1 to 5 µM"
>>> result_value("COc1cc2c(cc1OC(C)C)-n1c(-c3cc(Cl)c(F)cc3F)nc(C(=O)N3CCOCC3(C)C)c1CC2")
"1 to 5 µM"
>>> result_value("CCCn1nc(C)cc1-c1nc(C(=O)N2CCOCC2(C)C)c2n1-c1cc(OC(C)C)c(OC)cc1CC2")
"1 to 5 µM"
>>> result_value("COC(=O)c1nc(C(=O)N2CCOCC2(C)C)c2n1-c1cc(OC(C)C)c(OC)cc1CC2")
"1 to 5 µM"
>>> result_value("COc1cc2c(cc1-c1ccn(C)n1)-n1c(-c3cccc(Cl)c3)nc(C(=O)N3CCOCC3(C)C)c1CC2")
"0.1 to 1 µM"
>>> result_value("COc1cc2c(cc1-c1ccn(C)c1)-n1c(-c3cccs3)nc(C(=O)NC3(C)COC3)c1CC2")
"1 to 5 µM"

====

TESTED SYSTEM: FSHR (Homo sapiens)
EXPERIMENTAL PROTOCOL: EC50 of cyclic AMP production in CHO FSHR cells + EC20 FSH (Assay A)
CONDITION PARAMETERS: CHO-FSHR-LUC cells, in presence of EC20 FSH, cAMP HTRF, 1 h 37° C.
Some compounds, each annotated with its measured EC50.
PARAMETER: EC50

>>> result_value("COc1cc2c(cc1CC(C)C)-n1c(-c3cc[nH]n3)nc(C(=O)N(C)C(C)(C)C)c1CC2")
"> 5 µM"
>>> result_value("COc1cc2c(cc1OC(C)C)-n1c(-c3cn(C)nn3)nc(C(=O)N3CCOCC3(C)C)c1CC2")
"> 5 µM"
>>> result_value("[2H]C([2H])([2H])n1cc(-c2cc3c(cc2OC)CCc2c(C(=O)N4CCOCC4(C)C)nc(-c4cccn4C)n2-3)cn1")
"< 0.1 µM"
>>> result_value("COc1ccc(-c2nc(C(=O)N3CCOCC3(C)C)c3n2-c2cc(OC(C)C)c(OC)cc2CC3)c(C)c1")
"1 to 5 µM"
>>> result_value("COc1cc2c(cc1OC(C)C)-n1c(-c3cn(C)cn3)nc(C(=O)N3CCOCC3(C)C)c1CC2")
"> 5 µM"
>>> result_value("COc1cc2c(cc1CC(C)C)-n1c(-c3ccc(F)s3)nc(C(=O)N3CCOCC3(C)C)c1CC2")
"< 0.1 µM"
>>> result_value("COc1cc2c(cc1OC(C)C)-n1c(-c3cc[nH]n3)nc(C(=O)N3CCOCC3(C)C)c1CC2")
"> 5 µM"
>>> result_value("COc1cc2c(cc1CC(C)C)-n1c(C3CCN(C)CC3)nc(C(=O)N(C)C(C)(C)C)c1CC2")
"1 to 5 µM"
>>> result_value("COc1cc2c(cc1OC(C)C)-n1c(-c3sc(C)cc3C)nc(C(=O)N3CCOCC3(C)C)c1CC2")
"0.1 to 1 µM"
>>> result_value("COc1cc2c(cc1OC(C)C)-n1c(-c3ccc(F)c(Cl)c3F)nc(C(=O)N3CCOCC3(C)C)c1CC2")
"1 to 5 µM"
>>> result_value("COc1cc2c(cc1OC(C)C)-n1c(-c3cnn(C)c3C)nc(C(=O)N3CCOCC3(C)C)c1CC2")
"> 5 µM"
>>> result_value("COc1ccc(-c2nc(C(=O)N3CCOCC3(C)C)c3n2-c2cc(OC(C)C)c(OC)cc2CC3)cc1F")
"> 5 µM"
>>> result_value("COc1cc2c(cc1OC(C)C)-n1c(C#N)nc(C(=O)N3CCOCC3(C)C)c1CC2")
"> 5 µM"
>>> result_value("COc1cc2c(cc1OC(C)C)-n1c(-c3cc(Cl)ccc3Cl)nc(C(=O)N(C)C(C)(C)C)c1CC2")
"0.1 to 1 µM"
>>> result_value("COc1cc2c(cc1OC(C)C)-n1c(-c3cccn3C)nc(C(=O)N3CCOCC3(C)C)c1CC2")
"0.1 to 1 µM"
>>> result_value("COc1cc2c(cc1CC(C)C)-n1c(-c3ccn(C)n3)nc(C(=O)N3CCOCC3(C)C)c1CC2")
"0.1 to 1 µM"
>>> result_value("COc1cc2c(cc1OC(C)C)-n1c(-c3ccc(F)c(Cl)c3)nc(C(=O)N3CCOCC3(C)C)c1CC2")
"0.1 to 1 µM"
>>> result_value("[2H]C([2H])([2H])OCC(C)(C)N(C(=O)c1nc(-c2cccs2)n2c1CCc1cc(OC)c(CC(C)C)cc1-2)C([2H])([2H])[2H]")
"< 0.1 µM"
>>> result_value("COc1cc2c(cc1OC(C)C)-n1c(C3CCOCC3)nc(C(=O)N3CCOCC3(C)C)c1CC2")
"> 5 µM"
>>> result_value("[2H]C([2H])([2H])OC1CCN(C(=O)c2nc(-c3cccs3)n3c2CCc2cc(OC)c(CC(C)C)cc2-3)C1 (centres unmarked)")
"> 5 µM"
>>> result_value("COc1cc2c(cc1OC(C)C)-n1c(-c3cccc(Cl)c3)nc(C(=O)N3CCOCC3(C)C)c1CC2")
"0.1 to 1 µM"
>>> result_value("COc1cc2c(cc1OC(C)C)-n1c(-c3cc(Cl)ccc3F)nc(C(=O)N3CCOCC3(C)C)c1CC2")
"0.1 to 1 µM"
>>> result_value("COc1cc2c(cc1OC(C)C)-n1c(-c3ccc(F)c(C(F)(F)F)c3)nc(C(=O)N3CCOCC3(C)C)c1CC2")
"1 to 5 µM"
>>> result_value("COc1cc2c(cc1CC(C)C)-n1c(-c3cccs3)nc(C(=O)NCCNC(C)=O)c1CC2")
"1 to 5 µM"
>>> result_value("COc1cc2c(cc1OC(C)C)-n1c(-c3[nH]ncc3C)nc(C(=O)N3CCOCC3(C)C)c1CC2")
"1 to 5 µM"
>>> result_value("COc1cc2c(cc1OC(C)C)-n1c(-c3cc(C)sc3C)nc(C(=O)N3CCOCC3(C)C)c1CC2")
"0.1 to 1 µM"
>>> result_value("COc1cc2c(cc1OC(C)C)-n1c(-c3cc(C)cs3)nc(C(=O)N3CCOCC3(C)C)c1CC2")
"< 0.1 µM"
>>> result_value("COc1cc2c(cc1OC(C)C)-n1c(-c3cccc4c3OCCO4)nc(C(=O)N3CCOCC3(C)C)c1CC2")
"> 5 µM"
>>> result_value("COc1cc2c(cc1OC(C)C)-n1c(C3=CCC(C)CC3)nc(C(=O)N3CCOCC3(C)C)c1CC2 (centres unmarked)")
"1 to 5 µM"
